List of solubility change mitosis (log2) values.
# Test system: HeLa Kyoto;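 also: synchronized HeLa Kyoto cells (double thymidine block for G1/S, nocodazole release for mitosis), protein amounts in NP-40 versus SDS lysates quantified by mass spectrometry, three biological replicates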
# assay-details: solubility change mitosis vs G1/S (difference of NP-40 vs SDS log2 ratios) (log2 ratio difference); higher = more soluble in mitosis

biopolymer-sequence	solubility change mitosis (log2)
MARKSNLPVLLVPFLLCQALVRCSSPLPLVVNTWPFKNATEAAWRALASGGSALDAVESGCAMCEREQCDGSVGFGGSPDELGETTLDAMIMDGTTMDVGAVGDLRRIKNAIGVARKVLEHTTHTLLVGESATTFAQSMGFINEDLSTTASQALHSDWLARNCQPNYWRNVIPDPSKYCGPYKPPGILKQDIPIHKETEDDRGHDTIGMVVIHKTGHIAAGTSTNGIKFKIHGRVGDSPIPGAGAYADDTAGAAAATGNGDILMRFLPSYQAVEYMRRGEDPTIACQKVISRIQKHFPEFFGAVICANVTGSYGAACNKLSTFTQFSFMVYNSEKNQPTEEKVDCI	-0.136
MEESMEEEEGGSYEAMMDDQNHNNWEAAVDGFRQPLPPPPPPSSIPAPAREPPGGQLLAVPAVSVDRKGPKEGLPMGPQPPPEANGVIMMLKSCDAAAAVAKAAPAPTASSTININTSTSKFLMNVITIEDYKSTYWPKLDGAIDQLLTQSPGDYIPISYEQIYSCVYKCVCQQHSEQMYSDLIKKITNHLERVSKELQASPPDLYIERFNIALGQYMGALQSIVPLFIYMNKFYIETKLNRDLKDDLIKLFTEHVAEKHIYSLMPLLLEAQSTPFQVTPSTMANIVKGLYTLRPEWVQMAPTLFSKFIPNILPPAVESELSEYAAQDQKFQRELIQNGFTRGDQSRKRAGDELAYNSSSACASSRGYR [CACUL1]	0.103
